Assign yeast fitness to each entry below.
B1: tRNA (parent)
chain: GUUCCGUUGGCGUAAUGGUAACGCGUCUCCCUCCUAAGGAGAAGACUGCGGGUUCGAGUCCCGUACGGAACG

variants of: B1; assay: yeast fitness relative to wild type (ratio to wild type); higher = fitter; tRNA-Arg(CCU), competitive growth, 37 C, YPD
Fewer inactive variants are shown than the library holds.
One number for each entry.

Example cases with answers are listed next.
GUUCCGUUGGCGUAAUGGUAGCGCGUCUCCCUCCUAAGGAGAAGACUGCGGGUUCGAGUCCCGUACGGACCG    0.993
GUUUCGUUGGCGUAAUGGUAACGCGACUCCCUCCUAAGGAGAAGAUUGCGGGUUCGAGUCCCGUACGGAACG    0.972
GUUCCGUGGGCGUAAUGGUAACGCGUCUCCCUCCUAAGGAGAAGACUGCGGGUUCGAUUCCCGUGCAGAACG    0.547

Hello, I would appreciate it if you could give yeast fitness for each entry below.
1. GUCCCGUUGGCGUAAUGGUAACGCGUCUCCCUCCUAAGGAGAAGACUGCGGGUUCGAGUCCCGUGCGGAACG
2. GUUCCGUUGCCGUAAUGGUAACGUGUCUACCUCCUAAGGAGAAGUGAGCAGGUUCGAGUCCCGGACGGAACG

0.887
0.575
